# experimentalSystem: T1, HLA-A*0201 (human)
# T1 construct: also called HLA-A2.1; HLA A2.1
# testProtocol: iTopia net score;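 also: combined score from peptide binding, ED₅₀ and half-life of peptide complexes with plate-bound HLA-A2 molecules, computed by a proprietary formula in iTopia software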

binder | iScore
VFAEKITSL [cdr2 176-184 VFAEKITSL] | 0.106
EMFLTVPES [cdr2 293-301 EMFLTVPES] | 0.15
RGISLLHEV [cdr2 341-349 RGISLLHEV] | 0.752
KVYEQLDVT [cdr2 82-90 KVYEQLDVT] | 0.139
